- target_or_test_system: ZIKV NS2B-NS3 protease (Zika virus)
- Construct: 49-97) and NS2 protein (residues 1-185) through a covalent
- test_summary: ELISA binding to ZIKV NS2B-NS3 protease
- assay_context: detected with NS2B-NS3-immunized mouse sera, read-out: EC50, binding to ZIKV NS2B-NS3 protein
pEC50: −log10 of the molar value.
readout_label: pEC50

| compound | readout_label | reading |
| --- | --- | --- |
| Cc1cc2c(C(C)C)c(O)c(O)c(/C=N/n3c(=O)[nH][nH]c3=O)c2c(O)c1-c1c(C)cc2c(C(C)C)c(O)c(O)c(/C=N/n3c(=O)[nH][nH]c3=O)c2c1O [ST087010] | pEC50 | 4.66 |
